Provenance of the data: PubChem BioAssay (NCI)

growth inhibition values for the compounds below.
# protocol-details: NCI Yeast Anticancer Drug Screen. Data for the mec2-1 strain (AID 157)
# measurement-context: S. cerevisiae mec2-1 strain, at 50.0 µM, hits give high values
This is part of a sample that, as a whole, favours compounds with a hit. Of some 79,000 tested, about 15% had one in any assay.

| compound | unit-info | growth inhibition |
| --- | --- | --- |
| CCC(=O)Oc1c(Cl)cc(Cl)c(Cl)c1Cl | % | 14.2 |
| CCCCCCCCCCCCCCCCNC(=O)/C(=C\c1ccccc1O)NC(=O)c1ccccc1 | % | 35.1 |
| CCCCCCCCC(=O)NCCCNCCCNC(=O)CCCCCCCC | % | 50.2 |
| CC(C)C1=CC(=O)C(C)(C2C(O)CC3(C)C4CC=C5C(CCC(O)C5(C)C)C4(C)C(=O)CC23C)O1 (stereo unspecified) | % | 74.5 |
| C/C(=N/O)c1ccc2c(c1)C(=NO)c1cc(/C(C)=N/O)ccc1-2 | % | 94.7 |
| Cc1ccc(S(=O)(=O)Nc2ccccc2C=O)cc1 | % | 99.3 |
| O=C(Nc1cc(Cl)ccc1Cl)Nc1ccc(Cl)cc1C(=O)c1ccccc1 | % | 91.6 |
| N#CSc1ccc(O)c2ccccc12 | % | 91 |
| Cc1nn(C(=O)c2ccccc2O)c2c1C(c1ccc([N+](=O)[O-])cc1)SC(N)=N2 (stereo unspecified) | % | 47 |
| O=C1CCC(Cc2ccc(Br)cc2)C(=O)N1 (stereo unspecified) | % | 7.2 |
| O=[N+]([O-])c1ccc(N2CCCC(n3cccc3)C2)c([N+](=O)[O-])c1 (stereo unspecified) | % | 46.2 |
